Recorded below: MIC, system Staphylococcus aureus 25923.

{"columns": ["COMPOUND", "TESTED TARGET", "UNIT INFO", "MIC"],
 "data": [
  ["COc1ccc(-c2cc(-c3ccco3)nc3sc(C(N)=O)c(N=C4CCCCC4)c23)cc1 [Compound 4a]", "Staphylococcus aureus 25923", "µg/mL", 15.6],
  ["COc1ccc(-c2cc(-c3ccco3)nc3sc4c(NC(=O)CCl)c5c(nc4c23)CCCC5)cc1 [Compound 6a]", "Staphylococcus aureus 25923", "µg/mL", 31.2],
  ["COc1ccc(-c2cc(-c3ccco3)nc3sc4c(NC(=O)CNN=Cc5ccc(C)cc5)c5c(nc4c23)CCCC5)cc1 [Compound 8b]", "Staphylococcus aureus 25923", "µg/mL", 62.5],
  ["COc1ccc(-c2cc(-c3ccco3)nc3sc4c(NS(=O)(=O)c5ccccc5)c5c(nc4c23)CCCC5)cc1 [Compound 10]", "Staphylococcus aureus 25923", "µg/mL", 31.2],
  ["NNCC(=O)Nc1c2c(nc3c1sc1nc(-c4ccco4)cc(-c4cccs4)c13)CCCC2 [Compound 7b]", "Staphylococcus aureus 25923", "µg/mL", 31.2],
  ["COc1ccc(-c2cc(-c3ccco3)nc3sc4c(NC(=O)CN5CCN(C)CC5)c5c(nc4c23)CCCC5)cc1 [Compound 9b]", "Staphylococcus aureus 25923", "µg/mL", 15.6],
  ["Nc1c2c(nc3c1sc1nc(-c4ccco4)cc(-c4cccs4)c13)CCCC2 [Compound 5b]", "Staphylococcus aureus 25923", "µg/mL", 31.2]
]}

* * *

Parameter: melting point. Scope: all listed entries.

{"columns": ["MOLECULE", "UNIT INFO", "melting point"],
 "data": [
  ["COc1ccc(-c2cc(-c3ccco3)nc3sc4c(NC(=O)CNN=Cc5ccc(C)cc5)c5c(nc4c23)CCCC5)cc1", "°C", 122],
  ["Nc1c2c(nc3c1sc1nc(-c4ccco4)cc(-c4cccs4)c13)CCCC2", "°C", 248],
  ["COc1ccc(-c2cc(-c3ccco3)nc3sc4c(NC(=O)CNN=Cc5ccc(OC)c(OC)c5)c5c(nc4c23)CCCC5)cc1", "°C", 187],
  ["NNCC(=O)Nc1c2c(nc3c1sc1nc(-c4ccco4)cc(-c4cccs4)c13)CCCC2", "°C", 306],
  ["COc1ccc(-c2cc(-c3ccco3)nc(SCC(N)=O)c2C#N)cc1", "°C", 246],
  ["CC1=NN=C(Nc2c3c(nc4c2sc2nc(-c5ccco5)cc(-c5cccs5)c24)CCCC3)C1", "°C", 274],
  ["O=C(CCl)Nc1c2c(nc3c1sc1nc(-c4ccco4)cc(-c4cccs4)c13)CCCC2", "°C", 338],
  ["COc1ccc(-c2cc(-c3ccco3)nc3sc4c(NC(=O)CNN)c5c(nc4c23)CCCC5)cc1", "°C", 278],
  ["COc1ccc(-c2cc(-c3ccco3)nc3sc4c(NC(=O)CN5CCOCC5)c5c(nc4c23)CCCC5)cc1", "°C", 143],
  ["COc1ccc(-c2cc(-c3ccco3)nc3sc4c(N=Cc5ccc(N(C)C)cc5)c5c(nc4c23)CCCC5)cc1 [Compound 12a]", "°C", 149],
  ["COc1ccc(-c2cc(-c3ccco3)nc3sc4c(N)c5c(nc4c23)CCCC5)cc1", "°C", 231]
]}
